Assay: qHTS Screen of the MIPE 4.0 Collection Against Ewings Sarcoma (RDES) (AID 1259252); also: nearly all actives have a fitted effect of over 35% in size
Conditions: RD-ES Ewing sarcoma viability, CellTiter-Glo, 48 h; series mostly up to 45.8 µM
Inconclusive results are not listed. The source made the active and inactive calls. Calls follow the shape of the dose curve; as a rule, active = well fitted inhibition curve with a large enough effect; inconclusive = small, poorly fitted or top-dose-only effect; inactive = no such curve, though single readings can be large or run the other way.
Field 'call' accepts TRUE (active), FALSE (inactive)

Answered cases to consult:
{"compound": "Cc1cnc(-c2cc(N3CCN(C(=O)CCS(C)(=O)=O)CC3)ncc2Cl)c(C)c1", "discrete label": "FALSE"}
{"compound": "Fc1ccc(C(c2ccc(F)cc2)N2CCN(CC=Cc3ccccc3)CC2)cc1", "discrete label": "FALSE"}
{"compound": "CC1=C(C(=O)Nc2cc3cn[nH]c3cc2F)C(c2ccc(C(F)(F)F)cc2)CC(=O)N1 (stereo not drawn)", "discrete label": "TRUE"}
{"compound": "CNC(=O)c1c(-c2ccc(F)cc2)oc2cc(N(CCO)S(C)(=O)=O)c(C3CC3)cc12", "discrete label": "TRUE"}
{"compound": "CCC[C@@H](NC(=O)[C@@H]1[C@H]2CCC[C@@H]2CN1C(=O)[C@@H](NC(=O)[C@@H](NC(=O)c1cnccn1)C1CCCCC1)C(C)(C)C)C(=O)C(=O)NC1CC1", "discrete label": "FALSE"}
{"compound": "Clc1ccc(COC(Cn2ccnc2)c2ccc(Cl)cc2Cl)c(Cl)c1 (stereo not drawn)", "discrete label": "TRUE"}
{"compound": "CC(C)[C@H](O)C(=O)N[C@@H](C)C(=O)N[C@@H]1C(=O)N(C)CCc2ccccc21", "discrete label": "TRUE"}

Please look at the following compound next.
State the result this test recorded for "CN1CCN(c2cccc(Nc3nc4c(-c5ccc(S(C)(=O)=O)cc5)cccn4n3)c2)CC1" .
TRUE
